- system name: SARS-COV-2 spike protein receptor binding domain (amino acids Arg319 to Phe541) expressed with the F (SARS-CoV-2)
measured parameter: Kd

Data request: # return recorded Kd for entry mAb11006 (antibody, V domains shown) VH: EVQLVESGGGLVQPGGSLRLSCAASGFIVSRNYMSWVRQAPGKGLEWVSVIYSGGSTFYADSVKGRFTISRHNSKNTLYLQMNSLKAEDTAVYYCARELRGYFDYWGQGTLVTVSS VL: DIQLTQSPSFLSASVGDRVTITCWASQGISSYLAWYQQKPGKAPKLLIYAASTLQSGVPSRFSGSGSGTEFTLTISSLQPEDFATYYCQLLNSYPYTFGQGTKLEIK
Data returned: ≤ 53.2 pM
